Tested on: 521955-158-R2-J5-PDC complex spheroid viability
Assay: Anticancer human tumor 521955-158-R2-J5-PDC patient-derived pancreatic carcinoma cell line growth inhibition
Conditions: second compound 1 µM; first compound 0.003 µM; active compounds read low
Source text: Multicellular complex tumor spheroid response to LSD1 Inhibitor Iadademstat in combination with a variety of drugs and investigational agents in selected tumor cell lines The current study was undertaken to assess response to LSD1 inhibitors in combination with standard-of-care drugs and investigational agents in solid tumor complex spheroid models as well as in the K-562 leukemia. […] Compounds. […] If the clinical Cmax for an agent had not been determined, the highest concentration tested was 10 microM. […]

[
  {
    "compound": "Nc1ccn(C2OC(CO)C(O)C2(F)F)c(=O)n1 (stereo unspecified) + NC1CC1c1ccc(-c2cccc(O)c2)cc1",
    "viability, T/C, %": 84
  },
  {
    "compound": "CCc1c2c(nc3ccc(O)cc13)-c1cc3c(c(=O)n1C2)COC(=O)[C@]3(O)CC + NC1CCC(NC2CC2c2ccccc2)CC1",
    "viability, T/C, %": 3.09
  },
  {
    "compound": "Nc1ccn(C2OC(CO)C(O)C2(F)F)c(=O)n1 (stereo unspecified) + NC1CCC(NC2CC2c2ccccc2)CC1",
    "viability, T/C, %": 97.2
  },
  {
    "compound": "Nc1ncn(C2CC(O)C(CO)S2)c(=O)n1 (stereo unspecified) + NC1CCC(NC2CC2c2ccccc2)CC1",
    "viability, T/C, %": 87
  },
  {
    "compound": "Nc1ncn(C2CC(O)C(CO)S2)c(=O)n1 (stereo unspecified) + NC1CC1c1ccc(-c2cccc(O)c2)cc1",
    "viability, T/C, %": 90
  },
  {
    "compound": "CCc1c2c(nc3ccc(O)cc13)-c1cc3c(c(=O)n1C2)COC(=O)[C@]3(O)CC + NC1CC1c1ccc(-c2cccc(O)c2)cc1",
    "viability, T/C, %": 9.8
  }
]

---

Tested on: 521955-158-R2-J5-PDC complex spheroid viability
Experiment: Anticancer human tumor 521955-158-R2-J5-PDC cell line growth inhibition; active = viability on the fitted dose curve at most 10% of control; inactive = the rest;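 also: spheroids exposed to agents for seven days; percent of DMSO vehicle control luminescence viability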
Conditions: second compound 1 µM; first compound 0.949 µM
Classes used: Yes = active, No = inactive

[
  {
    "compound": "NS(=O)(=O)OCC1CC(n2ccc3c(NC4CCc5ccccc54)ncnc32)CC1O (configuration not stated) + NC1CC1c1ccc(-c2cccc(O)c2)cc1",
    "assigned-category": "No"
  },
  {
    "compound": "COc1cc(C2c3cc4c(cc3C(OC3OC5COC(C)OC5C(O)C3O)C3COC(=O)C23)OCO4)cc(OC)c1O (configuration not stated) + NC1CC1c1ccc(-c2cccc(O)c2)cc1",
    "assigned-category": "No"
  },
  {
    "compound": "O=C(C=Cc1cccc(S(=O)(=O)Nc2ccccc2)c1)NO + NC1CC1c1ccc(-c2cccc(O)c2)cc1",
    "assigned-category": "No"
  },
  {
    "compound": "CCN(c1cc(-c2ccc(CN3CCOCC3)cc2)cc(C(=O)NCc2c(C)cc(C)[nH]c2=O)c1C)C1CCOCC1 + NC1CC1c1ccc(-c2cccc(O)c2)cc1",
    "assigned-category": "No"
  },
  {
    "compound": "Nc1ccccc1NC(=O)c1ccc(CNC(=O)OCc2cccnc2)cc1 + NC1CC1c1ccc(-c2cccc(O)c2)cc1",
    "assigned-category": "No"
  },
  {
    "compound": "COc1cc(C2c3cc4c(cc3C(OC3OC5COC(C)OC5C(O)C3O)C3COC(=O)C23)OCO4)cc(OC)c1O (configuration not stated) + NC1CCC(NC2CC2c2ccccc2)CC1",
    "assigned-category": "Yes"
  },
  {
    "compound": "NS(=O)(=O)OCC1CC(n2ccc3c(NC4CCc5ccccc54)ncnc32)CC1O (configuration not stated) + NC1CCC(NC2CC2c2ccccc2)CC1",
    "assigned-category": "Yes"
  }
]

Every entry's value here was drawn from PubChem BioAssay AID1918937.
